# targetDesc: Geranylgeranyl transferase type I (Homo sapiens, UniProt P49354+P53609)
# protocolDetails: Inhibitory activity against geranylgeranyl transferase
IC50 reference

Look over these answered cases.
| molecule | IC50 |
| --- | --- |
| CC1c2ccc(C#N)c(c2)Oc2cccc(c2)CN2CCC(NCc3cncn31)C2=O (single isomer, unassigned; diastereomer A) | > 20 µM |
| N#Cc1ccc2cc1Oc1cc(Cl)cc(c1)CN1CCC(NCc3cncn3C2)C1=O (stereo not drawn) | > 20 µM |

Query molecule follows.
Form field IC50, entry CN1Cc2cncn2Cc2ccc(C#N)c(c2)Oc2ccc3c(c2)C(CC3)N2CCC1C2=O (stereo not drawn) : > 20 µM
